Molecular target: GABARAP (for ITC and NMR) (human) (UniProt O95166)
Sequence (O95166 whole entry): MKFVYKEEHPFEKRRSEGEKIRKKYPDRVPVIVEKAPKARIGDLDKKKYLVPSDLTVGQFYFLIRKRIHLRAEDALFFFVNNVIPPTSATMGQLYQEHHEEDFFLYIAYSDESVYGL
Assay: ITC; peptide 0.4 mM titrated into 0.020 mM LC3/GABARAP protein in 26 steps, 25°C; 50 mM Na2HPO4, 100 mM NaCl, pH 7.0; one-site model
endpoint-label: Kd (µM)
# output: bare number, implied unit µM

The substance PLEKHM1‐LIR N637G peptide (ITC) (from UniProt Q9Y4G2 629-642) showed Kd equal to 7.75

Kd in this record for PLEKHM1‐LIR VNV‐CIL peptide (ITC) (from UniProt Q9Y4G2 629-642) : 0.09
